Quick reference: protein stability index of the listed items.
B1: FBXO34 (parent)
chain: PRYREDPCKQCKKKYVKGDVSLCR

Variants of: B1
Test: protein stability index of a GFP-peptide fusion (GPS, HEK-293T) (PSI 1-6); higher = more stable;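 further: lentivirally expressed fusions sorted by FACS into six bins by GFP to DsRed ratio, PSI derived from sequencing read proportions per bin multiplied by bin number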
Conditions: c terminus: a fixed tail appended
Field format: numeric only.

Below, 2 variants whose answers are already recorded.
| Mutant Name | Data Value |
| --- | --- |
| R2Q | 3 |
| P7F | 2.22 |

What protein stability index value was documented for this variant, V16H ?
2.77

Another variant: R24G
3.11

Item: V20R
2.49

Try the variant R2M
2.49

Param item: V16S
2.93

What would you report for R24A ?
2.9

And what about the variant K9R ?
2.53

Now the same for E5K
3.27

Consider next the variant C8F in the same way.
3.15

Please answer likewise for C8V
3.61

G18F ?
2.16

Another: K14A
2.17

K12L ?
2.28

Then R4W ?
2.01

Same again, this time with L22F
2.58

Try this variant next: K13W
2.65

Note, next up: R24Q
3.91

Also P1L , if possible.
1.93
